EXPERIMENTAL_SYSTEM: T1, Recombinant MBP-mutCALR Type 1 fusion protein (human)
T1 construct: custom made at Cepter; also called recombinant mutCALR protein
PROTOCOL_SUMMARY: SPR, IgG captured, 1:1 fit, Exp. 2
Parameter Kd: see the listing below.

{"BINDER": "anti-mutCALR antibody clone 184 (antibody, human IgG1, lambda, N297A, V domains shown, human IgG1 N297A variant of clone 17) VH: EVQLVQSGAEVKKPGASVKVSCKVSGYTLTELSMQWVRQAPGKGLEWMGGFDPDDAETMYAEKFQGRLTVTEDTSTDTVYMELRSLTSEDTALYFCATSPGYDFFDYWGQGTLVTVSS VL: SYVLTQPPSVSVAPGQTARITCGGSDIGDEIVHWYQQKPGQAPVLVVYDDSDRPSGIPERFSGSNSGNTATLTISRVEAGDEADYYCQVWDSSSDHLIFGGGTKLTVLG", "METRIC": "Kd", "OBSERVED_VALUE": "1.57 nM"}

Item: anti-mutCALR antibody clone 84 (antibody, human IgG1, lambda, N297A, V domains shown, human IgG1 N297A variant of clone 6) VH: EVQLVQSGAEVKKPGASVKVSCKVSGYTLTELSMQWVRQAPGKGLEWMGGFDPDDAETMYAEKFQGRLTVTEDTSTDTVYMELSSLRSEDTAVYFCATSPGYDFFDYWGQGTLVTVSS VL: SYVLTQPPSVSVAPGKTARITCGGNNIGSKSVHWYQQKPGQAPVLVVYDDSDRPSGIPERFSGSNSGNTATLTISRVEAGDEADYYCQVWDSSNDLLIFGGGTKLTVLG | Kd: 2.01 nM

The binder listed as anti-mutCALR antibody clone 76 (antibody, human IgG1, lambda, N297A, V domains shown, human IgG1 N297A variant of clone 6) VH: EVQLVQSGAEVKKPGASVKVSCKVSGYTLTELSMQWVRQAPGKGLEWMGGFDPDAGETMYAEKFQGRLTVTEDTSTDTVYMELRSLTSEDTALYFCATSPGYDFFDYWGQGTLVTVSS VL: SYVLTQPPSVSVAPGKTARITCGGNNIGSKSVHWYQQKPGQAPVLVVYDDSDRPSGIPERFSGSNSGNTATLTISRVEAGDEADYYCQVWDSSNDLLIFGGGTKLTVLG has a reported Kd of 4.9 nM

These data points were gathered from patent US20230272055A1.
